Listed here: items and their measured polymerase ribozyme fitness (log ratio).
B1: TPR 5TU (parent)
chain: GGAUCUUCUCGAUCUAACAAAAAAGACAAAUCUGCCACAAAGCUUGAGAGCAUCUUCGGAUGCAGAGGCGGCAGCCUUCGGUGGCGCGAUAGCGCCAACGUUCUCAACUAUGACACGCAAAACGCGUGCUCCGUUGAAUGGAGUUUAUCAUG

Variants of: B1
Assay explanation: polymerase ribozyme fitness, log enrichment relative to wild type (log ratio); higher = more active; in vitro selection for triplet polymerase activity
Variants at the floor of the assay were thinned out.
API note: the answer field is a bare number with no unit suffix.

Below, each entry is followed by its recorded polymerase ribozyme fitness (log ratio) result.
[
  {
    "Mutant name": "A17U A19U A37U U53A G58A C95A A121G A122C",
    "Recorded metric": "polymerase ribozyme fitness (log ratio)",
    "Readout number": -3.75
  },
  {
    "Mutant name": "C27U C87U A142U",
    "Recorded metric": "polymerase ribozyme fitness (log ratio)",
    "Readout number": -3.03
  },
  {
    "Mutant name": "A60C G84U",
    "Recorded metric": "polymerase ribozyme fitness (log ratio)",
    "Readout number": -2.22
  },
  {
    "Mutant name": "G65C C85U",
    "Recorded metric": "polymerase ribozyme fitness (log ratio)",
    "Readout number": -4.04
  }
]

Moving on to another variant below.
I am curious: what polymerase ribozyme fitness (log ratio) value has been reported for C54A C96U ?
-1.43
